targetEntity: Serine/threonine-protein phosphatase (Candida dubliniensis (strain CD36 / CBS 7987 / NCPF 3949 / NRRLY-17841) (Yeast), UniProt B9W6M3)
Sequence (B9W6M3 whole entry): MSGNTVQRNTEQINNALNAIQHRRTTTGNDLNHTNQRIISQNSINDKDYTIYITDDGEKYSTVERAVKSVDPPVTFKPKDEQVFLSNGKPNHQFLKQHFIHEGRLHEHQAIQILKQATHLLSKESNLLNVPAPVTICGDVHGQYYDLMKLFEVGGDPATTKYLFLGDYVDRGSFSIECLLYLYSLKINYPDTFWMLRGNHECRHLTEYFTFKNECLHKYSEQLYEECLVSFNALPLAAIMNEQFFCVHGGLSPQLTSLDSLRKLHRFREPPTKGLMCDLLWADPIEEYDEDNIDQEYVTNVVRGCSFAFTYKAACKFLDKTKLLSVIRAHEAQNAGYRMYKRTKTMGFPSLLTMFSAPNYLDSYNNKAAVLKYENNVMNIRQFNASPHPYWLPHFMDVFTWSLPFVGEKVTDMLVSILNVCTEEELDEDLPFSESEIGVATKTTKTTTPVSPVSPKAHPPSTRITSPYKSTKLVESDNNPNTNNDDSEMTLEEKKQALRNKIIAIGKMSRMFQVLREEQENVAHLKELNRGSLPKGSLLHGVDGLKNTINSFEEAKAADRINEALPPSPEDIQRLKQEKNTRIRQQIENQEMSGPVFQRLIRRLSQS
measurementNotes: calcineurin pathway inhibitors in yeast reporter, dose response, S. cerevisiae, CDRE-lacZ, luminescence, secondary (AID 2388);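 also: yeast reporter cells carrying a calcineurin-responsive lacZ construct stimulated with calcium chloride; luminescent beta-galactosidase reporter signal in whole cells rather than isolated phosphatase activity; potency for inhibition where a drop in reporter signal means calcineurin blockade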
Format: functional, cell-based
Calls of active or inactive are those of the source. Rule as the data show it: actives have a measured EC50 and inactives only a lower limit.
A correct response names exactly one class from active, inactive

[
  {
    "compound": "O=C(N/N=C/c1cc2c3c(c1O)CCCN3CCC2)c1ccccc1O",
    "classAssignment": "active"
  },
  {
    "compound": "Oc1ccc(N=Nc2ccc3c(c2)OCCO3)c2ncccc12",
    "classAssignment": "inactive"
  },
  {
    "compound": "CCNc1nc(NC(C)C)nc(NC(C)(C)C)n1",
    "classAssignment": "inactive"
  },
  {
    "compound": "Cc1ccc(C(=O)Nc2cccc(-c3cn4ccccc4n3)c2)cc1",
    "classAssignment": "inactive"
  }
]

# ---- query compound ----
Dear colleague, could you share the recorded outcome for CN1CCN(C(c2ccc(C(F)(F)F)cc2)c2cc(Cl)c3cccnc3c2O)CC1 (stereo not given) when you have a moment? inactive

The origin of these recorded values is ChEMBL document CHEMBL1201862.
